Reported TGI by item:
# Test system: UACC-62 melanoma
# PROCEDURE_TEXT: NCI tumour cell line growth inhibition, 48 h

Query string: Give its TGI value. Item: [N-]=[N+]=NC1(c2ccccc2)C(=O)C(Cl)=C(c2ccccc2)N(c2ccccc2)C1=O (stereo not given)
Result string: > 100 µM

Query string: What about this compound? C1OC1CN1CCN(CC2CO2)CC1 (stereo not given)
Result string: > 68.5 µM

Further cases:
Query string: Look up TGI for this compound: COC1=N[C@H](C(C)C)C(OC)=N[C@H]1Cc1ccc(C[C@@H]2N=C(OC)[C@@H](C(C)C)N=C2OC)s1
Result string: > 100 µM

Query string: Query COC(=O)C1CCC(=O)N1CN(C(C)=O)c1cc(OC)ccc1OC (stereo not given) next
Result string: > 100 µM

Query string: Field entry: Cc1ccc(S(=O)(=O)NC(=O)NCCc2ccccc2)cc1
Result string: > 100 µM
